These entries and their values trace back to the SangsterLogP compilation.

# run-description: method code SF, from DOI: 10.1021/jm00237a002, PMID: 1133810
# applied-conditions: pH 7.2
measurement-name: logD
Just the number, please, no unit after it.

1. CCOc1cnc(NS(=O)(=O)c2ccccc2)nc1 : 0.53

Please find the next compound below.
Query block: // returns reported logD for input CCc1cnc(NS(=O)(=O)c2ccccc2)nc1
Result block: 0.88

----------
// logP lookup, one value per entry
# run-description: method code SF-ESR, from DOI: 10.1515/znc-1987-7-832, PMID: 2961152
Just the number, please, no unit after it.

1) CC1(C)CC(NC(=O)N(CCCl)N=O)C(C)(C)[N+]1(C)[O-] (configuration not stated) : 1.64

Please find the next compound below.
Query block: // returns reported logP for input CC1(C)CC(NC(=O)N(CCCl)N=O)CC(C)(C)N1[O]
Result block: 1.6

----------
# run-description: method code SF-AS, from PMID: 3449083
measurement-name: logP

Query block: // returns reported logP for input CN1C=CCC(C(=O)OC2CCC(NC(=O)N(CCCl)N=O)CC2)=C1 (stereo unspecified)
Result block: 2.53

----------
# run-description: method code SF, from DOI: 10.1016/j.ejps.2016.06.024, PMID: 27373604
# applied-conditions: pH 7.4
measurement-name: logD
Just the number, please, no unit after it.

Query block: // returns reported logD for input NC(=O)C1c2ccccc2CCc2ccccc21
Result block: 1.67

----------
# run-description: method code SF-AS, from PMID: 640322
# applied-conditions: pH 4.0
measurement-name: logD
Just the number, please, no unit after it.

Record excerpt, results attached:
1. CCN(N=O)C(N)=O : -0.15
2. CCCN(N=O)C(N)=O : 0.3
3. NC(=O)N(CCCN(N=O)C(N)=O)N=O : -0.3

Please find the next compound below.
Query block: // returns reported logD for input CC(C)CN(N=O)C(N)=O
Result block: 1.04

----------
measurement-name: logP
Just the number, please, no unit after it.

Query block: // returns reported logP for input CC(C)N1C(=O)c2ccccc2NS1(=O)=O
Result block: 1.95

----------
# run-description: method code SF-HPLC, from DOI: 10.1006/pest.1998.2384
// logP lookup, one value per entry
Just the number, please, no unit after it.

1. CCCCCCN1CCN(Cc2ccc(Cl)nc2)C1=N[N+](=O)[O-] : 2.2

Please find the next compound below.
Query block: // returns reported logP for input O=[N+]([O-])N=C1N(Cc2ccccc2)CCN1Cc1ccc(Cl)nc1
Result block: 1.49

----------
# run-description: method code SF-AS, from Thiel, W. (1998). Structure and physicochemical properties of retigabine. Pharmazie, 53(12)865-868.
# applied-conditions: pH 7.4
measurement-name: logD
Just the number, please, no unit after it.

Query block: // returns reported logD for input CCOC(=O)Nc1ccc(NCc2ccc(F)cc2)cc1N
Result block: 2.17

----------
# run-description: method code SF-GLC, from DOI: 10.1080/03086648508073361
measurement-name: logP
Just the number, please, no unit after it.

Record excerpt, results attached:
1. CN(C)P(=O)(N1CCCC1)N1CCCC1 : 1.88
2. CCN(CC)P(=O)(N(CC)CC)N(CC)CC : 2.53
3. CN(C)P1(=O)N(C)CCN1C : 0.02
4. O=P(N1CCCC1)(N1CCCC1)N1CCCC1 : 1.67

Please find the next compound below.
Query block: // returns reported logP for input CN(C)P(=O)(N(C)C)N1CCCC1
Result block: 0.82

----------
# run-description: method code SF-TN, from DOI: 10.1085/jgp.71.1.93, PMID: 621494
measurement-name: logP
Just the number, please, no unit after it.

Query block: // returns reported logP for input CCCC(O)C(=O)O (stereo unspecified)
Result block: 0.45

----------
# run-description: method code SF, from DOI: 10.1021/bk-1995-0606.ch004
measurement-name: logP
Just the number, please, no unit after it.

Record excerpt, results attached:
1. COP(=O)(OC)Oc1ccc(C#N)cc1 : 0.84
2. CCOP(=O)(Oc1ccc(C#N)cc1)c1ccccc1 (stereo not drawn) : 2.44

Please find the next molecule below.
Query block: // returns reported logP for input COP(=O)(OC)Oc1c(Cl)cc(C)cc1Cl
Result block: 2.66

----------
measurement-name: logP
Just the number, please, no unit after it.

Query block: // returns reported logP for input Oc1cc(Br)ccc1Br
Result block: 3.22

----------
# run-description: method code SF-AS, from DOI: 10.1021/jm00291a017, PMID: 5140011
measurement-name: logP

Query block: // returns reported logP for input S=C1CCCN1
Result block: -0.05

----------
# run-description: method code SF-AS, from DOI: 10.3390/molecules16097565, PMID: 21894089
measurement-name: logP
Just the number, please, no unit after it.

1. C[C@H](c1nc2ccc(F)cc2s1)N1C(=O)C(=O)N(c2ccc(Cl)cc2)C1=O : 0.41

Please find the next compound below.
Query block: // returns reported logP for input CC(C)c1ccc(N2C(=O)C(=O)N([C@H](C)c3nc4ccc(F)cc4s3)C2=O)cc1
Result block: 1.64

----------
measurement-name: logP
Just the number, please, no unit after it.

Query block: // returns reported logP for input OC1(c2ccc(Cl)cc2)CCNCC1
Result block: 1.98

----------
measurement-name: logP
Just the number, please, no unit after it.

1. CCC#N : 0.1

Please find the next molecule below.
Query block: // returns reported logP for input Nc1ccc(S(=O)(=O)NC(=O)c2ccccc2)cc1
Result block: 1.46

----------
// logP lookup, one value per entry
# run-description: method code pH-metric titration, from DOI: 10.1002/(sici)1096-9063(199607)47:3<265::aid-ps416>3.0.co;2-f
Just the number, please, no unit after it.

Query block: // returns reported logP for input CN1CCC[C@H]1c1cccnc1
Result block: 0.93

Query block: // returns reported logP for input CC(Oc1ccc(Oc2ccc(C(F)(F)F)cn2)cc1)C(=O)O (stereo not drawn)
Result block: 3.18

Query block: // returns reported logP for input CC(C(=O)O)N(C(=O)c1ccccc1)c1ccc(F)c(Cl)c1 (racemic)
Result block: 3.09

----------
// logP lookup, one value per entry
Just the number, please, no unit after it.

1) N#Cc1ccc(O)cc1 : 1.28
2) O=C(O)c1ccc([N+](=O)[O-])cc1Cl : 2.19
3) O=[N+]([O-])c1cc(-c2ccccc2)ccc1Br : 4.82

Query block: // returns reported logP for input OCc1ccc(Cl)cc1
Result block: 1.99

Query block: // returns reported logP for input O=C(O)c1cc([N+](=O)[O-])ccc1Cl
Result block: 2.13

----------
measurement-name: logP
Just the number, please, no unit after it.

Query block: // returns reported logP for input COc1cccc([C@H](O)C2CCN(CCc3ccc(F)cc3)CC2)c1OC
Result block: 3.8

----------
# run-description: method code SF, from DOI: 10.1016/j.tca.2016.07.020
# applied-conditions: pH 7.4
measurement-name: logD

Query block: // returns reported logD for input NC(=S)c1ccccn1
Result block: 1.14

----------
# run-description: method code SF-HPLC, from DOI: 10.1016/0378-5173(89)90313-x
# applied-conditions: pH 7.4
// logD lookup, one value per entry
Just the number, please, no unit after it.

1) CN1C=CCC(C(=O)NCCOC(=O)CCCc2ccc(N(CCCl)CCCl)cc2)=C1 : 2.16

Query block: // returns reported logD for input CN1C=CCC(C(=O)NC2CCC(OC(=O)CCCc3ccc(N(CCCl)CCCl)cc3)CC2)=C1 (configuration not stated)
Result block: 2.85

----------
measurement-name: logP
Just the number, please, no unit after it.

1. CON=C(C#N)C(=O)N[C@@H](CSC)C(=O)O : 0.52

Please find the next molecule below.
Query block: // returns reported logP for input CON=C(C#N)C(=O)N[C@@H](CS(C)(=O)=O)C(=O)O
Result block: -0.73

----------
measurement-name: logP
Just the number, please, no unit after it.

1) CC(=O)C=Cc1ccccc1 : 2.13
2) COCCc1ccc(OCC(O)CNC(C)C)cc1 (stereo not drawn) : 1.65

Query block: // returns reported logP for input CC(C)(C)NCC(O)COc1cccc2c1C[C@H](O)[C@H](O)C2 (stereo partly drawn)
Result block: 1.27

----------
// logD lookup, one value per entry
# run-description: method code SF-HPLC, from DOI: 10.1016/j.bmcl.2010.02.057, PMID: 20231095
# applied-conditions: pH 7.4
Just the number, please, no unit after it.

Record excerpt, results attached:
1. CC(OC(=O)c1sc2cc(O)c(O)cc2c1Cl)OC(=O)C(C)C (centres undefined) : 3.02
2. COC(=O)c1sc2cc(O)c(O)cc2c1Cl : 1.51
3. CC(C)C(=O)OCOC(=O)c1sc2cc(O)c(O)cc2c1Cl : 2.91

Please find the next molecule below.
Query block: // returns reported logD for input CCCOC(=O)c1sc2cc(O)c(O)cc2c1Cl
Result block: 2.45
